Listed here are compounds together with their documented melting point.

Before answering, review these 2 worked examples.
[[record]]
compound = "CC1(C)CCC[C@]2(C)OC(=O)C[C@H]12"
recorded_measurement = "74 to 75 °C"

[[record]]
compound = "O=C(O)Cc1ccc(OCCNC(=O)C2Cc3ccccc3N2S(=O)(=O)c2ccc(-c3cc(C(F)(F)F)ccc3Cl)cc2)cc1F (centres undefined)"
recorded_measurement = "105 °C"


input: Note down melting point recorded for Cc1noc(C(=O)N2CCCCC2)c1C(=O)O
output: 128 to 130 °C

input: Note down melting point recorded for CCCCCCOC(C)c1ccc(-c2ccc(C(=O)O)cc2)cc1 (single isomer, unassigned; (+))
output: 154 °C

input: Note down melting point recorded for CC(CCCc1ccccc1)c1cc2oc(=O)c3c(c2cc1O)C(=O)CCC3 (centres undefined)
output: 200 to 202 °C

* * *

measured_metric: melting point

Before answering, review these 5 worked examples.
[[record]]
compound = "COC(=O)c1c(Br)c(F)cc2[nH]ncc12"
recorded_measurement = "169 to 171 °C"

[[record]]
compound = "CCC1(CC)CC(=O)c2cc(C#N)ccc2O1"
recorded_measurement = "71 to 72 °C"

[[record]]
compound = "C=CN1CC/C(=C\\C)C1=O"
recorded_measurement = "59 to 61 °C"

[[record]]
compound = "CO/C=C(/C(=O)OC)c1ccccc1/C=C(\\Cl)OC(=O)C1=C(c2ccccc2)S(=O)(=O)C(c2ccccc2)C1=O (stereo unspecified)"
recorded_measurement = "68 to 72 °C"

[[record]]
compound = "CC(C)C(=O)Nc1nn(C)c2c1sc1c(Cl)cccc12"
recorded_measurement = "218 to 219 °C"


Next up:
input: Note down melting point recorded for Cc1nc(Nc2ccc3[nH]ccc3c2)c2sc(-c3ccccc3)cc2n1
output: 205 to 210 °C

* * *

measured_metric: melting point

[[record]]
compound = "COC1c2c(ccc3cnn(CC(C)N)c23)OCC1O (stereo not given)"
recorded_measurement = "105 to 108 °C"

[[record]]
compound = "CC(C)NC1=NS(=O)(=O)c2ccc(C(F)(F)F)cc2N1"
recorded_measurement = "294 to 297 °C"

[[record]]
compound = "COC(=O)c1ccccc1-n1c(CCl)nc2ccc(F)cc2c1=O"
recorded_measurement = "213 to 215 °C"

[[record]]
compound = "CC(C)(C)c1cc(-c2ccccc2NC(=O)CCCC(=O)O)cc(C(C)(C)C)c1O"
recorded_measurement = "132 to 134 °C"

[[record]]
compound = "COc1ccc(C2(O)c3cc(NC(=O)CC(C)(C)C)c(C)c(C)c3OC2(C)C)cc1 (stereo not given)"
recorded_measurement = "110 to 111 °C"


input: Note down melting point recorded for CCOC(=O)c1nc(C)c(SC)c(O)n1
output: 139 °C

input: Note down melting point recorded for NC(=O)CN1CC(OCc2ccccc2)=CC1=O
output: 174 to 176 °C

input: Note down melting point recorded for COC(C)(C)C(=O)C(Oc1ccc(I)cc1)n1cncn1 (stereo not given)
output: 81.5 to 82.5 °C

input: Note down melting point recorded for N#Cc1ccccc1C1=CC2CC(=O)CC2C1 (stereo not given)
output: 36 to 37 °C

input: Note down melting point recorded for COc1ccc(-c2nc3n(c2-c2ccccc2)Cc2ccccc2C3)cc1
output: 172 to 173 °C
